TEST SYSTEM: CDK12 (Homo sapiens, UniProt Q9NYV4)
Sequence (Q9NYV4 whole entry): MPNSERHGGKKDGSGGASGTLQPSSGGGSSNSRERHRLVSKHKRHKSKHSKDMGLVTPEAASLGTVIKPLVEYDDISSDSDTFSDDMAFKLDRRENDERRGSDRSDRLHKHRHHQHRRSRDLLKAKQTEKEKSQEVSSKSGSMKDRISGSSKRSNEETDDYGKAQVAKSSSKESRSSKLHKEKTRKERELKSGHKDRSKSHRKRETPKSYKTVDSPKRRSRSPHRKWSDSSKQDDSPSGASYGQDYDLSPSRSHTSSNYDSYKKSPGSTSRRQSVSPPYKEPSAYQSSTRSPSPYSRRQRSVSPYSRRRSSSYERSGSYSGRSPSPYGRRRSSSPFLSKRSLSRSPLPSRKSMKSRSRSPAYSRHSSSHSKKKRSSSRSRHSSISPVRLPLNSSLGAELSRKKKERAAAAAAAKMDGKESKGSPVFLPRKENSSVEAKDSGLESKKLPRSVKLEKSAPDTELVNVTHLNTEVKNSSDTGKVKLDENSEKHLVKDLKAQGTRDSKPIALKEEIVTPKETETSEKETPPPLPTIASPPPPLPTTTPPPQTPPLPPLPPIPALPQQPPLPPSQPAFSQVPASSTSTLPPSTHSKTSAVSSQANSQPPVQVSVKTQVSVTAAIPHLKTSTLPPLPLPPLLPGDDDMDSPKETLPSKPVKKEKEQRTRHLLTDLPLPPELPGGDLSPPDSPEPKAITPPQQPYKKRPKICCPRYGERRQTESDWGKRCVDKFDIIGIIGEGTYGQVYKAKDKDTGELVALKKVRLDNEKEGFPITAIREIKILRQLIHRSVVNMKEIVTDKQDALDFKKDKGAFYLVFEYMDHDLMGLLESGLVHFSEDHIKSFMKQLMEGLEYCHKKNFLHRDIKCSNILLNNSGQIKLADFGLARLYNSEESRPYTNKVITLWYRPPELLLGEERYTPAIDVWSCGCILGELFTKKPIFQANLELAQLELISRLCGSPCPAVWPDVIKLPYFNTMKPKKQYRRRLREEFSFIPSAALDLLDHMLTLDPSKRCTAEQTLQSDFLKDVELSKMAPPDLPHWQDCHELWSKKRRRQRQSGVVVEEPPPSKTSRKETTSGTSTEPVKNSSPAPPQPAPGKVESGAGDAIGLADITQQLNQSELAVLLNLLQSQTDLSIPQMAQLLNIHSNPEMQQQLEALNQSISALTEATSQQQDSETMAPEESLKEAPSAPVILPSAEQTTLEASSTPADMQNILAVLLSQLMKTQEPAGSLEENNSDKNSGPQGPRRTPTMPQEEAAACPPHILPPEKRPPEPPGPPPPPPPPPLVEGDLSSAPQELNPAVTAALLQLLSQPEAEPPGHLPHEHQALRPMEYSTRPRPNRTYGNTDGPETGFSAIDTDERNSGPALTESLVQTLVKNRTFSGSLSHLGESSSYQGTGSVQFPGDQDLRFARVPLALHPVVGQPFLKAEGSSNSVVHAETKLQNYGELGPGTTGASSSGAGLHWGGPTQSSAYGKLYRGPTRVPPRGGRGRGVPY
Sequence (O75909 whole entry partner): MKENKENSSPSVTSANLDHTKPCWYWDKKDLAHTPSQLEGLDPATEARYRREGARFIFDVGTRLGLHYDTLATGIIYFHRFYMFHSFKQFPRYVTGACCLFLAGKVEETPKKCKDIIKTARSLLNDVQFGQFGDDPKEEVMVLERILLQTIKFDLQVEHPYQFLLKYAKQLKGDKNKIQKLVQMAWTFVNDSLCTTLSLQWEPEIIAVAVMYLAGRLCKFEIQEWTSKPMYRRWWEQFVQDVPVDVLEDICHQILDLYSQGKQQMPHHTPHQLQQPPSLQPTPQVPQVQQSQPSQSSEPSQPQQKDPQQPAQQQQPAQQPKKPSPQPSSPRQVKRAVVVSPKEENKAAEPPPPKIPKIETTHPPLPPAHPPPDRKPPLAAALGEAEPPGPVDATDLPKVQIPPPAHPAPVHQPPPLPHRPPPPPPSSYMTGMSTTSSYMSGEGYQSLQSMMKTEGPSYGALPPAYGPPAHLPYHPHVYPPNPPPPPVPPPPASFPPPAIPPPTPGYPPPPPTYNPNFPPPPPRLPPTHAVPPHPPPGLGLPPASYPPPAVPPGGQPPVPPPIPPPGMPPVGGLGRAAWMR
ASSAY: Inhibition of cyclin-dependent kinase 12 (% enzyme activity at 1 uM and IC50)
Type: biochemical
MEASUREMENT PARAMETERS: 1 uM compound
Lab note: compare remaining activity at 1 µM with 40%, writing MET if less and NOT MET if equal or more.

[
  {
    "MOLECULE": "Cc1cc(-c2cnc3c(NCc4nc5c(F)cccc5[nH]4)cc(N4CCN(C)CC4)nn23)cs1",
    "GROUP": "MET"
  },
  {
    "MOLECULE": "CN1CCN(c2cc(NCc3nc4cccc(Cl)c4[nH]3)c3ncc(-c4csc(C#N)c4)n3n2)CC1",
    "GROUP": "MET"
  },
  {
    "MOLECULE": "CC(C)n1cc(-c2cnc3c(NCc4nc5c(F)cccc5[nH]4)cc(N4CCOCC4)nn23)cn1",
    "GROUP": "NOT MET"
  },
  {
    "MOLECULE": "CN1CCN(c2cc(NCc3nc4c(F)cccc4[nH]3)c3ncc(-c4cnn(C(F)F)c4)n3n2)CC1",
    "GROUP": "NOT MET"
  },
  {
    "MOLECULE": "CN1CCN(c2cc(NCc3nc4c(F)cccc4[nH]3)c3ncc(-c4cnn(C5CC5)c4)n3n2)CC1",
    "GROUP": "NOT MET"
  },
  {
    "MOLECULE": "Fc1ccc2[nH]c(CNc3cc(N4CCOCC4)nn4c(-c5cnn(C6CC6)c5)cnc34)nc2c1F",
    "GROUP": "NOT MET"
  },
  {
    "MOLECULE": "Cc1noc(C)c1-c1cnc2c(NCc3nc4cc(Cl)c(Cl)cc4[nH]3)cc(N3CCOCC3)nn12",
    "GROUP": "NOT MET"
  },
  {
    "MOLECULE": "Cc1cc(-c2cnc3c(NCc4nc5cccc(Cl)c5[nH]4)cc(N4CCOCC4)nn23)cs1",
    "GROUP": "NOT MET"
  },
  {
    "MOLECULE": "CN1CCN(c2cc(NCc3nc4c(F)c(F)ccc4[nH]3)c3ncc(-c4csc(C#N)c4)n3n2)CC1",
    "GROUP": "MET"
  },
  {
    "MOLECULE": "CN1CCN(c2cc(NCc3nc4c(F)c(F)ccc4[nH]3)c3ncc(-c4ccsc4)n3n2)CC1",
    "GROUP": "MET"
  },
  {
    "MOLECULE": "CC(C)n1cc(-c2cnc3c(NCc4nc5cc(Cl)c(Cl)cc5[nH]4)cc(N4CCN(C)CC4)nn23)cn1",
    "GROUP": "NOT MET"
  },
  {
    "MOLECULE": "Cc1ccnc2[nH]c(CNc3cc(N4CCOCC4)nn4c(-c5cnn(C(C)C)c5)cnc34)nc12",
    "GROUP": "MET"
  },
  {
    "MOLECULE": "CN1CCN(c2cc(NCc3nc4cccc(Cl)c4[nH]3)c3ncc(-c4cnn(C5CC5)c4)n3n2)CC1",
    "GROUP": "NOT MET"
  },
  {
    "MOLECULE": "CC(C)n1cc(-c2cnc3c(NCc4nc5c(F)c(F)ccc5[nH]4)cc(N4CCN(C)CC4)nn23)cn1",
    "GROUP": "NOT MET"
  },
  {
    "MOLECULE": "Cc1cc(-c2cnc3c(NCc4nc5c(C)ccnc5[nH]4)cc(N4CCN(C)CC4)nn23)cs1",
    "GROUP": "MET"
  },
  {
    "MOLECULE": "Fc1cccc2[nH]c(CNc3cc(N4CCOCC4)nn4c(-c5cnn(C6CC6)c5)cnc34)nc12",
    "GROUP": "NOT MET"
  }
]

Taken from patent US20260055114A1.
